Target: HLA-B*46:01
Assay: IEDB peptide-MHC binding, purified MHC/competitive/fluorescence; filed as Kd, often an IC50 or EC50 that approximates it; bounds were set here for any values at or beyond the usual limits of such assays
Settings: source organism: Vibrio parahaemolyticus RIMD 2210633
pKd: −log10 of the molar value.
Measured Property: pKd

1) GTVPTDNPF	≤ 4.70

====

Target: HLA-A*29:02
Assay: IEDB peptide-MHC binding, purified MHC/direct/fluorescence; filed as Kd, often an IC50 or EC50 that approximates it; bounds were set here for any values at or beyond the usual limits of such assays
Settings: source organism: Mycobacterium tuberculosis str. Haarlem
Measured Property: Kd

1. DTDPLPVVF	≥ 20 µM

====

Biological target: HLA-A*69:01
Test: IEDB peptide-MHC binding, purified MHC/competitive/fluorescence; filed as Kd, often an IC50 or EC50 that approximates it; bounds were set here for any values at or beyond the usual limits of such assays
Conditions: source organism: Kurkino virus
Measured Property: Kd

1. SPGDNSAKF	≥ 20 µM

====

Molecular target: HLA-B*57:01
Assay: IEDB peptide-MHC binding, purified MHC/direct/fluorescence; filed as Kd, often an IC50 or EC50 that approximates it; bounds were set here for any values at or beyond the usual limits of such assays
Settings: source organism: Burkholderia mallei
Measured Property: Kd

1) RRSLLAHVR	≥ 20 µM

====

Target: HLA-B*27:05
Test: IEDB peptide-MHC binding, purified MHC/direct/fluorescence; filed as Kd, often an IC50 or EC50 that approximates it; bounds were set here for any values at or beyond the usual limits of such assays
Conditions: source organism: Cowpox virus
Measured Property: Kd

1. YHRPLTGYM	≥ 20 µM

====

Biological target: HLA-B*08:02
Assay: IEDB peptide-MHC binding, purified MHC/direct/fluorescence; filed as Kd, often an IC50 or EC50 that approximates it; bounds were set here for any values at or beyond the usual limits of such assays
Settings: source organism: Influenza A virus H3N2
Measured Property: Kd

1) VPAQNAIST	≥ 20 µM

====

Target: HLA-A*02:03
Test: IEDB peptide-MHC binding, purified MHC/direct/fluorescence; filed as Kd, often an IC50 or EC50 that approximates it; bounds were set here for any values at or beyond the usual limits of such assays
Conditions: source organism: Orthohantavirus andesense
Measured Property: Kd

1) IQNALEKAL	≥ 20 µM
2) VFTSRIQVI	≥ 20 µM

====

Target: HLA-A*02:01
Experiment: IEDB peptide-MHC binding, purified MHC/direct/fluorescence; filed as Kd, often an IC50 or EC50 that approximates it; bounds were set here for any values at or beyond the usual limits of such assays
Details: source organism: SARS-CoV1
pKd: −log10 of the molar value.
Measured Property: pKd

1) TPRDLGACI	≤ 4.44

====

Biological target: HLA-B*15:01
Assay: IEDB peptide-MHC binding, purified MHC/direct/fluorescence; filed as Kd, often an IC50 or EC50 that approximates it; bounds were set here for any values at or beyond the usual limits of such assays
Settings: source organism: Influenza A virus (A/Switzerland/8808/2002(H1N1))
Measured Property: Kd

1) VPAQNAIST	≥ 20 µM

====

Biological target: HLA-B*15:09
Assay: IEDB peptide-MHC binding, purified MHC/competitive/fluorescence; filed as Kd, often an IC50 or EC50 that approximates it; bounds were set here for any values at or beyond the usual limits of such assays
Conditions: source organism: Human immunodeficiency virus type 1 (MAL ISOLATE)
Measured Property: Kd

1) GSEEIKSLY	≥ 20 µM

====

Target: HLA-B*46:01
Experiment: IEDB peptide-MHC binding, purified MHC/competitive/fluorescence; filed as Kd, often an IC50 or EC50 that approximates it; bounds were set here for any values at or beyond the usual limits of such assays
Conditions: source organism: Choclo virus
Measured Property: Kd

1) GRFQEALKK	≥ 20 µM

====

Biological target: HLA-A*30:02
Test: IEDB peptide-MHC binding, purified MHC/competitive/radioactivity; filed as Kd, often an IC50 or EC50 that approximates it; bounds were set here for any values at or beyond the usual limits of such assays
Details: source organism: Triticum aestivum
Measured Property: Kd (nM)

1) QYPSGQGSF	1.17

====

Molecular target: HLA-A*02:01
Assay: IEDB peptide-MHC binding, purified MHC/competitive/radioactivity; filed as Kd, often an IC50 or EC50 that approximates it; bounds were set here for any values at or beyond the usual limits of such assays
Details: source organism: Dengue virus 4 Dominica/814669/1981
pKd: −log10 of the molar value.
Measured Property: pKd

1) ALSEGVYRI	8.54

====

Target: HLA-A*02:19
Assay: IEDB peptide-MHC binding, purified MHC/direct/fluorescence; filed as Kd, often an IC50 or EC50 that approximates it; bounds were set here for any values at or beyond the usual limits of such assays
Details: source organism: Burkholderia mallei ATCC 23344
pKd: −log10 of the molar value.
Measured Property: pKd

1. LVTGAGSGF	≤ 4.70

====

Target: HLA-B*18:01
Test: IEDB peptide-MHC binding, purified MHC/direct/fluorescence; filed as Kd, often an IC50 or EC50 that approximates it; bounds were set here for any values at or beyond the usual limits of such assays
Settings: source organism: Influenza A virus (A/Switzerland/8808/2002(H1N1))
Measured Property: Kd

1. VPAQNAIST	≥ 20 µM

====

Target: HLA-A*02:11
Experiment: IEDB peptide-MHC binding, purified MHC/competitive/fluorescence; filed as Kd, often an IC50 or EC50 that approximates it; bounds were set here for any values at or beyond the usual limits of such assays
Settings: source organism: Mycobacterium tuberculosis variant bovis BCG str. Pasteur 1173P2
pKd: −log10 of the molar value.
Measured Property: pKd

1) AEFGPWQTV	6.90

====

Molecular target: HLA-A*02:02
Assay: IEDB peptide-MHC binding, purified MHC/competitive/radioactivity; filed as Kd, often an IC50 or EC50 that approximates it; bounds were set here for any values at or beyond the usual limits of such assays
Conditions: source organism: HIV-1 M:B_ARV2/SF2
Measured Property: Kd (µM)

1) FLGKIWPSYK	0.449

====

Target: HLA-B*15:17
Assay: IEDB peptide-MHC binding, purified MHC/direct/fluorescence; filed as Kd, often an IC50 or EC50 that approximates it; bounds were set here for any values at or beyond the usual limits of such assays
Details: source organism: Vibrio parahaemolyticus
pKd: −log10 of the molar value.
Measured Property: pKd

1. TVIPFYFVW	8.17

====

Target: HLA-A*26:01
Test: IEDB peptide-MHC binding, purified MHC/direct/fluorescence; filed as Kd, often an IC50 or EC50 that approximates it; bounds were set here for any values at or beyond the usual limits of such assays
Settings: source organism: Brucella abortus
Measured Property: Kd

1. AENGWGFYF	≥ 20 µM

====

Target: HLA-A*02:06
Test: IEDB peptide-MHC binding, purified MHC/competitive/radioactivity; filed as Kd, often an IC50 or EC50 that approximates it; bounds were set here for any values at or beyond the usual limits of such assays
Settings: source organism: Lymphocytic choriomeningitis virus (strain Armstrong)
pKd: −log10 of the molar value.
Measured Property: pKd

1. LNVSYLCHL	4.87

====

Target: HLA-A*01:01
Experiment: IEDB peptide-MHC binding, purified MHC/competitive/radioactivity; filed as Kd, often an IC50 or EC50 that approximates it; bounds were set here for any values at or beyond the usual limits of such assays
Details: source organism: Dengue virus 1 Brazil/97-11/1997
Entries and their Kd
Measured Property: Kd (µM)

1. GTVLVQVKY	1.24
2. EVDSFSLGI	7.39
3. LTAIANQAAI	10.2

====

Target: HLA-B*39:01
Assay: IEDB peptide-MHC binding, purified MHC/competitive/fluorescence; filed as Kd, often an IC50 or EC50 that approximates it; bounds were set here for any values at or beyond the usual limits of such assays
Conditions: source organism: Kurkino virus
Measured Property: Kd

1) SPGDNSAKF	≥ 20 µM

====

Molecular target: HLA-C*15:02
Experiment: IEDB peptide-MHC binding, purified MHC/direct/fluorescence; filed as Kd, often an IC50 or EC50 that approximates it; bounds were set here for any values at or beyond the usual limits of such assays
Conditions: source organism: Camelpox virus CMS
pKd: −log10 of the molar value.
Measured Property: pKd

1. IVIEAIHTV	6.47

====

Biological target: HLA-B*58:01
Test: IEDB peptide-MHC binding, purified MHC/direct/fluorescence; filed as Kd, often an IC50 or EC50 that approximates it; bounds were set here for any values at or beyond the usual limits of such assays
Conditions: source organism: Cowpox virus
pKd: −log10 of the molar value.
Measured Property: pKd

1. VYSFDESSF	≤ 4.70
2. YHRPLTGYM	≤ 4.70

====

Target: HLA-B*18:01
Assay: IEDB peptide-MHC binding, purified MHC/direct/fluorescence; filed as Kd, often an IC50 or EC50 that approximates it; bounds were set here for any values at or beyond the usual limits of such assays
Conditions: source organism: Orthomarburgvirus marburgense
Measured Property: Kd (nM)

1) LEHGLYPQL	34
